Hey, just so you know, these numbers are from patent US20160053277A1.

Test: 14C assay with IPTG-induced recombinant E. coli cells: 14CO2 captured from [14C]-carboxyl-labeled dicamba
Conditions: induced recombinant E. coli cells, [14C]-carboxyl-labeled dicamba, 14CO2 capture

MOLECULE	Dicamba Decarboxylase Activity
79 (protein, Pyrenophora teres) MATTTTPSTLIATLESHLTPTLAFTSPTTSPTQPALHLIPPTTLTKLRNLGPGRVKDMHMLGHSRQIISHIPVAAPPQICSRFNDAIHAATMTNTAKFSVLAVLPTDGMEAAKELARCVSKYRFVGGVIGLNRGLRINGEGWEELWGLAERLRIPIMFREMWPLAFEIVDYQHHLPYSALGPILTQLHTSHTSSPLPLVRLYLSSVFDHYPSLRLVLAHPGSLPSLVPRIESLINSIPATDKPKRSFLDVWQHNIYLTTADAQDMSSLRALLEQIPVDRVLYASNYPFEERGNELMNELRESEFLTNIEWERVAWVNAETLFNLKEAGTKEARQLTTIPSSRS	High
